- Test system: Trypanosoma brucei brucei strain 221
- assay remarks: Trypanosoma brucei brucei assay
- Type: cell-based
- setup conditions: Trypanosoma brucei, 48 h, read-out: Tbb MIC50
Let's look at some molecules and their measured MIC50.
Give your result in µM as a bare value.

Sample answers from the record:
[[record]]
molecule = "N#Cc1nc(Nc2cccc(C(F)(F)F)c2)nc(NC2CCCC2)n1 [Compound 28]"
target = "Trypanosoma brucei brucei strain 221"
recorded_value = 25

[[record]]
molecule = "N#Cc1nc(Nc2cccc(F)c2)nc(NC2CCCC2)n1 [Compound 21]"
target = "Trypanosoma brucei brucei strain 221"
recorded_value = 100


Record request: MIC50 value, item N#Cc1nc(Nc2cccc(Cl)c2)nc(NC2CCCC2)n1 [Compound 22]
6

----------
- System: Trypanosoma brucei brucei strain 221
- assay remarks: Trypanosoma brucei brucei assay
- Format: cell-based
- setup conditions: Trypanosoma brucei, 48 h, read-out: Tbb MIC50
quantity name: MIC50 (µM)
Give your result in µM as a bare value.

Sample answers from the record:
[[record]]
smiles_str = "Cc1cccc(Nc2nc(C#N)nc(NC3CCCC3)n2)c1"
quantity_name = "MIC50"
u = "µM"
recorded_value = 25

[[record]]
smiles_str = "N#Cc1nc(Nc2cccc([N+](=O)[O-])c2)nc(NC2CCCC2)n1"
quantity_name = "MIC50"
u = "µM"
recorded_value = 100

[[record]]
smiles_str = "N#Cc1nc(Nc2cccc(Cl)c2)c2ncn(C3CCCC3)c2n1"
quantity_name = "MIC50"
u = "µM"
recorded_value = 100

[[record]]
smiles_str = "N#Cc1nc(Nc2cccc(-c3ccccc3)c2)nc(NC2CCCC2)n1"
quantity_name = "MIC50"
u = "µM"
recorded_value = 25

[[record]]
smiles_str = "N#Cc1nc(NCC(F)F)nc(Nc2cc(F)cc(F)c2)n1"
quantity_name = "MIC50"
u = "µM"
recorded_value = 6

[[record]]
smiles_str = "CCn1cnc2c(Nc3cccc(Cl)c3)nc(C#N)nc21"
quantity_name = "MIC50"
u = "µM"
recorded_value = 25

[[record]]
smiles_str = "N#Cc1nc(Nc2cccc(Br)c2)nc(NC2CCCC2)n1"
quantity_name = "MIC50"
u = "µM"
recorded_value = 6

[[record]]
smiles_str = "N#Cc1nc(Nc2cc(F)cc(F)c2)nc(NC2CCCC2)n1"
quantity_name = "MIC50"
u = "µM"
recorded_value = 6

[[record]]
smiles_str = "CCn1cnc2c(Nc3cc(F)cc(F)c3)nc(C#N)nc21"
quantity_name = "MIC50"
u = "µM"
recorded_value = 25


Record request: MIC50 value, item N#Cc1nc(Nc2cc(Cl)cc(Cl)c2)nc(NC2CCCC2)n1
25
